- SYSTEM_UNDER_TEST: LAPTc (acidic M17 leucyl-aminopeptidase from T. cruzi) (Trypanosoma cruzi)
- Sequence (V5BWE3 entry or part of it): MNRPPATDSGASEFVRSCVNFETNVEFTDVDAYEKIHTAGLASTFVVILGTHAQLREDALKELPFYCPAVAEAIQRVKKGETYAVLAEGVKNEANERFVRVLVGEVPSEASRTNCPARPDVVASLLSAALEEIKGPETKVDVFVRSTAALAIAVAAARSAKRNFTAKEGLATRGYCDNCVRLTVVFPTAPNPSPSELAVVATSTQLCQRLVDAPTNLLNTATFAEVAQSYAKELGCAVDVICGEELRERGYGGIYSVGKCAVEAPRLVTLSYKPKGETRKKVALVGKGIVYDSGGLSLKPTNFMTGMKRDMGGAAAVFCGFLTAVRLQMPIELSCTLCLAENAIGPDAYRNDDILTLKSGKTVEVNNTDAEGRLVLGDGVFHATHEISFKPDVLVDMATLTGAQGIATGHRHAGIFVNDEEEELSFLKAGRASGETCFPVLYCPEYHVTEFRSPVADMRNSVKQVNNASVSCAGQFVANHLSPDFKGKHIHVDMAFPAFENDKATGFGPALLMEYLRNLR
- PROTOCOL: Dose-response studies for LAPTc inhibition by RapidFire-MS
- Type: biochemical
- CONDITION_PARAMETERS: IC50 (LAPTc)
MEASURED_QUANTITY: pIC50
Numbers only, as −log10 of the molar value.

// COc1ccc2oc(C(=O)Nc3nc(-c4ccccn4)cs3)c(C)c2c1 [Compound 4] : pIC50 value = 6.36

----------
- SYSTEM_UNDER_TEST: LAPTc (acidic M17 leucyl-aminopeptidase from T. cruzi) (Trypanosoma cruzi)
- PROTOCOL: Dose-response studies for LAPTc inhibition by RapidFire-MS
- Assay type: biochemical
- CONDITION_PARAMETERS: Replicate data generation, individual replicates; read-out: Maximum Effect
Class (required): determined from Emax; valid ranges are low: < 70%; intermediate: ≥ 70% and < 90%; high: ≥ 90%

CC1c2ccsc2CCN1C(=O)c1ccc(-n2cnnn2)cc1 (centres unmarked) [Compound 2] ... intermediate
c1ccc(Cc2ccc(OCCn3ccnc3)cc2)cc1 [Compound 13] ... low
Cc1ccc2nc(-c3ccc(NS(=O)(=O)c4cc(C(=O)O)c(Cl)cc4Cl)cc3)sc2c1 [Compound 5] ... high
NC(=O)C1Cc2ccccc2CN1C(=O)Cc1cn2ccsc2n1 (centres unmarked) [Compound 28] ... intermediate
CCCS(=O)(=O)c1ccc(NS(=O)(=O)c2sc3ccc(Cl)cc3c2C)cc1 [Compound 24] ... high

Proceed to the following item.
Qu. Bin this entry: O=C(CN1NS(=O)(=O)c2ccccc2C1=O)NCCc1ccccc1 [Compound 6]
Ans. intermediate
